Molecular target: T1, SCAF4-CID R112A (human, UniProt O95104 1-139, R112A)
T1 sequence: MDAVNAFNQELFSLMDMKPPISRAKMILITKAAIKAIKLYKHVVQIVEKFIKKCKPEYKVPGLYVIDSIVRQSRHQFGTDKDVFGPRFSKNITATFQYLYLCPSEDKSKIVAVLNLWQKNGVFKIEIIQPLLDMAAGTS
Assay: fluorescence polarization
pKd: −log10 of the molar value.
PROPERTY_LABEL: pKd

>>> result_number("GTGGG (ssDNA) [SCAF4_LS (D2_5nt)]")
6.17
